Target: Thyrotropin-releasing hormone receptor (Homo sapiens)
Assay: qHTS assay to identify small molecule agonists of the thyrotropin-releasing hormone receptor (TRHR) signaling pathway (AID 1346891);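 also: HEK293 cells expressing TRHR with calcium dye readout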
Details: TRHR-HEK293 calcium fluorescence, agonist mode; series mostly up to 57.6 µM
Calls of active or inactive are those of the source. Calls follow the shape of the full dose curve.
reported_endpoint: activation

Worked set:
CC(=O)C1=C(C)[C@@H]2C[C@@]3(C1)[C@H](C)CC[C@H]3C2(C)C = inactive
COc1ccc(CCN2CCC(Nc3nc4ccccc4n3Cc3ccc(F)cc3)CC2)cc1 = inactive
Cc1cc(OCCOCC[N+](C)(C)Cc2ccccc2)ccc1C(C)(C)CC(C)(C)C = inactive
CCN1CCCC1CNC(=O)c1cc(S(=O)(=O)CC)c(N)cc1OC (centres undefined) = inactive
Nc1nc2ccccc2[nH]1 = inactive
Cc1ccnc2c1NC(=O)c1cccnc1N2C1CC1 = inactive
OCC(CO)N[C@H]1C[C@](O)(CO)[C@@H](O)[C@H](O)[C@H]1O = inactive
Cc1ccc(-c2cc(C(F)(F)F)nn2-c2ccc(S(N)(=O)=O)cc2)cc1 = inactive
COc1nc(C)nc(Cl)c1NC1=NCCN1 = inactive
O=C(Nc1ccccc1SSc1ccccc1NC(=O)c1ccccc1)c1ccccc1 = inactive

Request: Which activation reading was recorded for the compound "COC(=O)c1cccc(C(=O)OC)c1" ?
Response: inactive

Request: What do we get for "O=C(O)CCc1ccccc1" ?
Response: inactive

Request: What do we get for "CCCCCCCCCCCCc1ccccc1O" ?
Response: inactive

Request: What do we get for "Oc1ccc(Cl)cc1Cc1cc(Cl)ccc1O" ?
Response: inactive

Request: What do we get for "Cc1cc(Cc2cc(C)cc(C(C)(C)C)c2O)c(O)c(C(C)(C)C)c1" ?
Response: inactive

Request: What do we get for "c1cnc2cc3c(cc2n1)C1CNCC3C1" ?
Response: inactive

Request: What do we get for "CCCC(=O)c1ccccc1" ?
Response: inactive

----------
Biological target: Androgen receptor (Homo sapiens)
Test: qHTS assay to identify small molecule antagonists of the androgen receptor (AR) signaling pathway (AID 743035)
Details: HEK293 AR-UAS-bla, R1881-stimulated, beta-lactamase FRET, 16 h; series mostly up to 58.5 µM
Inconclusive results are not listed. Activity calls are given as the source filed them. The call rests on the fitted dose curve; in most records, active means well fitted inhibition curve with a large enough effect in the signal ratio in the repeat runs (not every such curve was filed as active); inconclusive means weak or mixed curves, or effect the other way; inactive means no such curve, though single readings can be large or run the other way; the % refers to the signal ratio.
Entry note: the call must match one of active, inactive

Request: Tell me the assay call for "CCCCCCCCCCCCc1ccccc1O" please.
Response: active

Request: What do we get for "Cc1ccc(-c2cc(C(F)(F)F)nn2-c2ccc(S(N)(=O)=O)cc2)cc1" ?
Response: active

Request: What do we get for "COC(=O)c1cccc(C(=O)OC)c1" ?
Response: inactive

Request: What do we get for CC1COC(=O)O1 (configuration not stated) ?
Response: inactive

Request: What do we get for "OCC(CO)N[C@H]1C[C@](O)(CO)[C@@H](O)[C@H](O)[C@H]1O" ?
Response: inactive

Request: What do we get for "CCOc1ccc2c(c1)C(C)=CC(C)(C)N2" ?
Response: inactive

Request: What do we get for "CCOc1ccccc1C(N)=O" ?
Response: inactive

Request: What do we get for "CCCC(=O)c1ccccc1" ?
Response: inactive

Request: What do we get for "O=Cc1ccc(Cl)cc1" ?
Response: inactive

Request: What do we get for CCC(C)(Oc1ccc(C2(c3ccc(OC(C)(CC)C(=O)O)cc3)CCCCC2)cc1)C(=O)O (configuration not stated) ?
Response: inactive

Request: What do we get for CCN(CC)C(=O)Nc1ccc(OCC(O)CNC(C)(C)C)c(C(C)=O)c1 (configuration not stated) ?
Response: inactive

Request: What do we get for "CC(C)CCOCc1ccccc1" ?
Response: inactive

----------
Test: qHTS assay to identify small molecule agonists of the endoplasmic reticulum stress response signaling pathway - cell viability counter screen (AID 1159517); also: nearly all actives have a fitted effect of over 50% in size
Details: ESRE-bla HeLa viability, CellTiter-Glo luminescence, 5 h; series mostly up to 61 µM
Inconclusive results are not listed. Calls of active or inactive are those of the source. The call rests on the fitted dose curve.
Entry note: the call must match one of active, inactive

Request: Tell me the assay call for COc1ccc(CCN(C)CCCC(C#N)(c2ccc(OC)c(OC)c2)C(C)C)cc1OC (stereo not drawn) please.
Response: inactive

Request: What do we get for "O=S(=O)(O)c1ccc2nc(-c3ccccc3)[nH]c2c1" ?
Response: active

Request: What do we get for CNC1(C)C2CCC(C2)C1(C)C (stereo not drawn) ?
Response: inactive

Request: What do we get for "COc1nc(C)nc(Cl)c1NC1=NCCN1" ?
Response: inactive

Request: What do we get for "CC(=O)OCCOCCOCCOC(C)=O" ?
Response: inactive

Request: What do we get for "C/C=C/c1ccc(OCC)c(O)c1" ?
Response: inactive

Request: What do we get for "CN1C(=O)c2ccc([N+](=O)[O-])cc2C1=O" ?
Response: inactive

Request: What do we get for CC(C(O)c1ccc(O)cc1)N1CCC(Cc2ccccc2)CC1 (stereo not drawn) ?
Response: inactive

Request: What do we get for "Cc1occc(=O)c1OC(=O)C(C)C" ?
Response: inactive

Request: What do we get for "Cc1cccc([N+](=O)[O-])c1C(=O)O" ?
Response: inactive

Request: What do we get for "CC(C)(c1ccccc1)c1ccc(Nc2ccc(C(C)(C)c3ccccc3)cc2)cc1" ?
Response: inactive

Request: What do we get for c1ccc2c(c1)CCCC2C1=NCCN1 (stereo not drawn) ?
Response: inactive

Request: What do we get for "O=C(Cl)c1cccc(C(=O)Cl)c1" ?
Response: inactive

Request: What do we get for "CCCCCC(=O)O[C@]1(C(C)=O)CC[C@H]2[C@@H]3CCC4=CC(=O)CC[C@]4(C)[C@H]3CC[C@@]21C" ?
Response: inactive

Request: What do we get for "CC(C)(C)c1ccccc1" ?
Response: inactive

Request: What do we get for "CN(C)c1ccc(C(=C2C=CC(=[N+](C)C)C=C2)c2ccccc2)cc1" ?
Response: active

Request: What do we get for "COC(=O)[C@H]1[C@H]2C[C@@H]3c4[nH]c5cc(OC)ccc5c4CCN3C[C@H]2C[C@@H](OC(=O)c2cc(OC)c(OC)c(OC)c2)[C@@H]1OC" ?
Response: inactive

Request: What do we get for "NCCCCCC(=O)O" ?
Response: inactive

Request: What do we get for "COC(=O)/C=C/c1ccccc1" ?
Response: inactive

Request: What do we get for "COC(c1ccccc1)(c1ccccc1)[C@H](Oc1nc(C)cc(C)n1)C(=O)O" ?
Response: inactive

Request: What do we get for "N[C@@H]1CONC1=O" ?
Response: inactive

Request: What do we get for "c1ccc2n[nH]nc2c1" ?
Response: inactive

Request: What do we get for "O=C(O)CCc1ccccc1" ?
Response: inactive

Request: What do we get for "CC(=O)OCC1=C(C(=O)O)N2C(=O)[C@@H](NC(=O)Cc3cccs3)[C@H]2SC1" ?
Response: inactive

Request: What do we get for "C=CS(=O)(=O)O" ?
Response: inactive

Request: What do we get for "Cc1cc(C(C)(C)C)c(O)c(C(C)(C)C)c1" ?
Response: inactive

Request: What do we get for "CO[Si](OC)(OC)c1ccccc1" ?
Response: inactive

Request: What do we get for "O=C(O)c1cc(Cl)cc(Cl)c1" ?
Response: inactive

Request: What do we get for "CCOc1ccc2c(c1)C(C)=CC(C)(C)N2" ?
Response: inactive

Request: What do we get for "Cc1scc2c1N(C(=O)CN1CCN(C)CC1)c1ccccc1NC2=O" ?
Response: inactive

Request: What do we get for "CCCOC(=O)c1cc(O)c(O)c(O)c1" ?
Response: inactive

Request: What do we get for "O=C(O)c1cn(-c2ccc(F)cc2)c2cc(N3CCNCC3)c(F)cc2c1=O" ?
Response: inactive

Request: What do we get for "CCC(C)(C)C(=O)O[C@H]1C[C@@H](C)C=C2C=C[C@H](C)[C@H](CC[C@@H]3C[C@@H](O)CC(=O)O3)[C@H]21" ?
Response: inactive

Request: What do we get for "O=C1OC2(c3ccc(O)cc3Oc3cc(O)ccc32)c2ccccc21" ?
Response: inactive

Request: What do we get for CCCNC(C)C(=O)Nc1ccccc1C (stereo not drawn) ?
Response: inactive

Request: What do we get for "CCN(CC)c1ccc2c(C)cc(=O)oc2c1" ?
Response: inactive

Request: What do we get for "O=C(O[C@@H]1Cc2c(O)cc(O)cc2O[C@@H]1c1cc(O)c(O)c(O)c1)c1cc(O)c(O)c(O)c1" ?
Response: inactive

Request: What do we get for "CC[C@@H](N)CO" ?
Response: inactive

Request: What do we get for "CCC(CO)(CO)COCC(CC)(CO)CO" ?
Response: inactive

Request: What do we get for "CC(C)CCOCc1ccccc1" ?
Response: inactive

Request: What do we get for "CCN(CC)C(=S)SSC(=S)N(CC)CC" ?
Response: inactive

Request: What do we get for "CC1=CC(=O)c2ccccc2C1=O" ?
Response: active

Request: What do we get for "COc1ccc(Cc2cnc(N)nc2N)cc1OC" ?
Response: inactive

Request: What do we get for "CCc1ccc(C(c2ccc(CC)cc2)C(Cl)Cl)cc1" ?
Response: inactive

Request: What do we get for "Cc1cccc(O)c1C" ?
Response: inactive

Request: What do we get for "[Cl][In]([Cl])[Cl]" ?
Response: inactive

Request: What do we get for "c1cnc2cc3c(cc2n1)C1CNCC3C1" ?
Response: inactive

Request: What do we get for "CC(N)=O" ?
Response: inactive

Request: What do we get for "Cc1cc(OCCOCC[N+](C)(C)Cc2ccccc2)ccc1C(C)(C)CC(C)(C)C" ?
Response: active

Request: What do we get for "COc1cc(C(=S)N2CCOCC2)ccc1O" ?
Response: inactive

Request: What do we get for "CCCC(=O)c1ccccc1" ?
Response: inactive

Request: What do we get for "O=C1CC2(CCCC2)CC(=O)N1CCCCN1CCN(c2ncccn2)CC1" ?
Response: inactive

Request: What do we get for "C=CC(=O)OCCCCCCCC" ?
Response: inactive
